Tested on: CS1 (Chondrosarcoma);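 further: after 72 h of two-drug dosing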
protocol summary: Bliss excess, mean over the matrix (fraction); higher = more synergy
value kind: Bliss excess

Indicate the recorded Bliss excess value for this molecule: Cc1c2c(nn1C)CSCc1cc(n(C)n1)CSc1cc(c3ccccc3c1)OCCCc1c(C(=O)O)n(C)c3c-2c(Cl)ccc13 [AZD5991] + CC(=O)O[C@H]1C(=O)[C@@]2(C)[C@H]([C@H](OC(=O)c3ccccc3)[C@]3(O)C[C@H](OC(=O)[C@H](O)[C@@H](NC(=O)c4ccccc4)c4ccccc4)C(C)=C1C3(C)C)[C@]1(OC(C)=O)CO[C@@H]1C[C@@H]2O [Paclitaxel] (first compound max 1 µM, 7x7, partner max 3 µM)
-0.012

Indicate the recorded Bliss excess value for this molecule: NC1(C(=O)N[C@@H](CCO)c2ccc(Cl)cc2)CCN(c2ncnc3[nH]ccc23)CC1 [Capivasertib] + Cn1cnc2c(F)c(Nc3ccc(Br)cc3Cl)c(C(=O)NOCCO)cc21 [Selumetinib] (first compound max 10 µM, 7x7, partner max 10 µM)
0.0373

Indicate the recorded Bliss excess value for this molecule: CN(CCO)CC[C@H](CSc1ccccc1)Nc1ccc(S(=O)(=O)NC(=O)c2ccc(N3CCC([C@@H](O)c4ccccc4-c4ccc(Cl)cc4)CC3)cc2)cc1S(=O)(=O)C(F)(F)F [AZD4320] + C1CN(CCC1(C(=O)N[C@@H](CCO)C2=CC=C(C=C2)Cl)N)C3=NC=NC4=C3C=CN4 [Capivasertib] (first compound max 1 µM, 7x7, partner max 3 µM)
-0.022

Indicate the recorded Bliss excess value for this molecule: O=C(c1cc(Cc2n[nH]c(=O)c3ccccc23)ccc1F)N1CCN(C(=O)C2CC2)CC1 [Olaparib] + CC1(C)CCC(CN2CCN(c3ccc(C(=O)NS(=O)(=O)c4ccc(NCC5CCOCC5)c([N+](=O)[O-])c4)c(Oc4cnc5[nH]ccc5c4)c3)CC2)=C(c2ccc(Cl)cc2)C1 [Venetoclax] (first compound max 10 µM, 7x7, partner max 1 µM)
-0.0621

Indicate the recorded Bliss excess value for this molecule: CN(CCO)CC[C@H](CSc1ccccc1)Nc1ccc(S(=O)(=O)NC(=O)c2ccc(N3CCC([C@@H](O)c4ccccc4-c4ccc(Cl)cc4)CC3)cc2)cc1S(=O)(=O)C(F)(F)F [AZD4320] + C[C@@H](Nc1cc(F)cc(F)c1)c1cc(C(=O)N(C)C)cc2c(=O)cc(N3CCOCC3)oc12 [AZD8186] (first compound max 1 µM, 7x7, partner max 3 µM)
-0.0411

Indicate the recorded Bliss excess value for this molecule: C[C@@H](Nc1cc(F)cc(F)c1)c1cc(C(=O)N(C)C)cc2c(=O)cc(N3CCOCC3)oc12 [AZD8186] + CC(=O)c1c(C)c2cnc(Nc3ccc(N4CCNCC4)cn3)nc2n(C2CCCC2)c1=O [Palbociclib] (first compound max 10 µM, 7x7, partner max 10 µM)
0.0326

Indicate the recorded Bliss excess value for this molecule: CC1(C)CCC(CN2CCN(c3ccc(C(=O)NS(=O)(=O)c4ccc(NCC5CCOCC5)c([N+](=O)[O-])c4)c(Oc4cnc5[nH]ccc5c4)c3)CC2)=C(c2ccc(Cl)cc2)C1 [Venetoclax] + C=CCn1c(=O)c2cnc(Nc3ccc(N4CCN(C)CC4)cc3)nc2n1-c1cccc(C(C)(C)O)n1 [AZD1775] (first compound max 1 µM, partner max 1 µM)
0.0589

Indicate the recorded Bliss excess value for this molecule: COc1nnc2ccc(N3CCC(c4ccc(OCCN5CCN(C)C(=O)[C@H]5C)cc4)CC3)nn12 [AZD5153] + CC1(C)CCC(CN2CCN(c3ccc(C(=O)NS(=O)(=O)c4ccc(NCC5CCOCC5)c([N+](=O)[O-])c4)c(Oc4cnc5[nH]ccc5c4)c3)CC2)=C(c2ccc(Cl)cc2)C1 [Venetoclax] (first compound max 1 µM, 7x7, partner max 1 µM)
-0.054

Indicate the recorded Bliss excess value for this molecule: CCN(CCO)CCCOc1ccc2c(Nc3cc(CC(=O)Nc4cccc(F)c4)[nH]n3)ncnc2c1 [AZD2811] + C=CCn1c(=O)c2cnc(Nc3ccc(N4CCN(C)CC4)cc3)nc2n1-c1cccc(C(C)(C)O)n1 [AZD1775] (first compound max 1 µM, partner max 1 µM)
0.0264

Indicate the recorded Bliss excess value for this molecule: C=CCn1c(=O)c2cnc(Nc3ccc(N4CCN(C)CC4)cc3)nc2n1-c1cccc(C(C)(C)O)n1 [AZD1775] + C1CN(CCC1(C(=O)N[C@@H](CCO)C2=CC=C(C=C2)Cl)N)C3=NC=NC4=C3C=CN4 [Capivasertib] (first compound max 3 µM, partner max 3 µM)
-0.0394

Indicate the recorded Bliss excess value for this molecule: CC1(C)CCC(CN2CCN(c3ccc(C(=O)NS(=O)(=O)c4ccc(NCC5CCOCC5)c([N+](=O)[O-])c4)c(Oc4cnc5[nH]ccc5c4)c3)CC2)=C(c2ccc(Cl)cc2)C1 [Venetoclax] + C1CN(CCC1(C(=O)N[C@@H](CCO)C2=CC=C(C=C2)Cl)N)C3=NC=NC4=C3C=CN4 [Capivasertib] (first compound max 1 µM, 7x7, partner max 3 µM)
-0.072

Indicate the recorded Bliss excess value for this molecule: CN(C)CCCOc1ccc(-c2ccc3ncc4c(c3c2)n(C2CCOCC2)c(=O)n4C)cn1 [AZD0156] + CCN(CCO)CCCOc1ccc2c(Nc3cc(CC(=O)Nc4cccc(F)c4)[nH]n3)ncnc2c1 [AZD2811] (first compound max 1 µM, 7x7, partner max 1 µM)
-0.0074

====

Tested on: MSTO-211H (Mesothelioma)
protocol summary: combination Emax (second highest fraction inhibited in the dose matrix, 72 h); higher = more inhibition; extreme values may be limits of the assay
combination Emax overview
Answer with a number only.

Below: 6 compounds and their reported combination Emax.
INSERT INTO assay_data (compound, meas_value) VALUES
  ('Cc1c2c(nn1C)CSCc1cc(n(C)n1)CSc1cc(c3ccccc3c1)OCCCc1c(C(=O)O)n(C)c3c-2c(Cl)ccc13 [AZD5991] + C1CN(CCC1(C(=O)N[C@@H](CCO)C2=CC=C(C=C2)Cl)N)C3=NC=NC4=C3C=CN4 [Capivasertib] (first compound max 1 µM, 7x7, partner max 3 µM)', 0.245),
  ('Cn1cnc2c(F)c(Nc3ccc(Br)cc3Cl)c(C(=O)NOCCO)cc21 [Selumetinib] + CC(C)n1c(=O)n(C)c2cnc3cc(F)c(-c4ccc(OCCCN5CCCCC5)nc4)cc3c21 [AZD1390] (first compound max 10 µM, 7x7, partner max 0.3 µM)', 0.162),
  ('C=CCn1c(=O)c2cnc(Nc3ccc(N4CCN(C)CC4)cc3)nc2n1-c1cccc(C(C)(C)O)n1 [AZD1775] + C1CN(CCC1(C(=O)N[C@@H](CCO)C2=CC=C(C=C2)Cl)N)C3=NC=NC4=C3C=CN4 [Capivasertib] (first compound max 3 µM, partner max 3 µM)', 0.352),
  ('NC1(C(=O)N[C@@H](CCO)c2ccc(Cl)cc2)CCN(c2ncnc3[nH]ccc23)CC1 [Capivasertib] + Cn1cnc2c(F)c(Nc3ccc(Br)cc3Cl)c(C(=O)NOCCO)cc21 [Selumetinib] (first compound max 10 µM, 7x7, partner max 10 µM)', 0.379),
  ('CN(CCO)CC[C@H](CSc1ccccc1)Nc1ccc(S(=O)(=O)NC(=O)c2ccc(N3CCC([C@@H](O)c4ccccc4-c4ccc(Cl)cc4)CC3)cc2)cc1S(=O)(=O)C(F)(F)F [AZD4320] + C=CCn1c(=O)c2cnc(Nc3ccc(N4CCN(C)CC4)cc3)nc2n1-c1cccc(C(C)(C)O)n1 [AZD1775] (first compound max 1 µM, partner max 1 µM)', 0.933),
  ('CS(=O)(=O)CCNCc1ccc(-c2ccc3ncnc(Nc4ccc(OCc5cccc(F)c5)c(Cl)c4)c3c2)o1 [Lapatinib] + Cn1cnc2c(F)c(Nc3ccc(Br)cc3Cl)c(C(=O)NOCCO)cc21 [Selumetinib] (first compound max 10 µM, 7x7, partner max 10 µM)', 0.337);

Indicate the recorded combination Emax value for this compound: O=C(c1cc(Cc2n[nH]c(=O)c3ccccc23)ccc1F)N1CCN(C(=O)C2CC2)CC1 [Olaparib] + Cc1c2c(nn1C)CSCc1cc(n(C)n1)CSc1cc(c3ccccc3c1)OCCCc1c(C(=O)O)n(C)c3c-2c(Cl)ccc13 [AZD5991] (first compound max 10 µM, 7x7, partner max 1 µM)
0.0433

Indicate the recorded combination Emax value for this compound: CN(CCO)CC[C@H](CSc1ccccc1)Nc1ccc(S(=O)(=O)NC(=O)c2ccc(N3CCC([C@@H](O)c4ccccc4-c4ccc(Cl)cc4)CC3)cc2)cc1S(=O)(=O)C(F)(F)F [AZD4320] + Cc1cc2ncnn2cc1Nc1ncc2c(n1)n(C1CCOCC1)c(=O)n2C [AZD7648] (first compound max 1 µM, 7x7, partner max 10 µM)
0.327

====

combination Emax overview
Test system: SNG-M (Endometrial Carcinoma)
protocol summary: combination Emax (second highest fraction inhibited in the dose matrix, 72 h); higher = more inhibition; extreme values may be limits of the assay
Answer with a number only.

INSERT INTO measurements (compound, value_kind, meas_value) VALUES
  ('CC1(C)CCC(CN2CCN(c3ccc(C(=O)NS(=O)(=O)c4ccc(NCC5CCOCC5)c([N+](=O)[O-])c4)c(Oc4cnc5[nH]ccc5c4)c3)CC2)=C(c2ccc(Cl)cc2)C1 [Venetoclax] + C[C@@H]1COCCN1C2=NC(=NC(=C2)C3(CC3)[S@](=N)(=O)C)C4=C5C=CNC5=NC=C4 [AZD6738] (first compound max 1 µM, 7x7, partner max 10 µM)', 'combination Emax', 0.894),
  ('C[C@@H](Oc1cc(-c2cnn(C3CCNCC3)c2)cnc1N)c1c(Cl)ccc(F)c1Cl [Crizotinib] + Cn1cnc2c(F)c(Nc3ccc(Br)cc3Cl)c(C(=O)NOCCO)cc21 [Selumetinib] (first compound max 10 µM, 7x7, partner max 10 µM)', 'combination Emax', 0.783),
  ('Cc1cc2ncnn2cc1Nc1ncc2c(n1)n(C1CCOCC1)c(=O)n2C [AZD7648] + CCN(CCO)CCCOc1ccc2c(Nc3cc(CC(=O)Nc4cccc(F)c4)[nH]n3)ncnc2c1 [AZD2811] (first compound max 10 µM, 7x7, partner max 1 µM)', 'combination Emax', 0.281);

The record that follows has no combination Emax shown yet.
Indicate the recorded combination Emax value for this compound: CC(=O)c1c(C)c2cnc(Nc3ccc(N4CCNCC4)cn3)nc2n(C2CCCC2)c1=O [Palbociclib] + Cc1c2c(nn1C)CSCc1cc(n(C)n1)CSc1cc(c3ccccc3c1)OCCCc1c(C(=O)O)n(C)c3c-2c(Cl)ccc13 [AZD5991] (first compound max 10 µM, 7x7, partner max 1 µM)
0.485
